Cited source: patent US8389512B2

# key: entry, value: meloxicam plasma concentration
test: 4 hr in-vivo study: meloxicam plasma concentration after oral delivery to rats; details: rat, time 0 min
Provide the reading as a plain figure in µg/mL.

| Smiles String | meloxicam plasma concentration, µg/mL |
| --- | --- |
| Cc1cnc(NC(=O)C2=C(O)c3ccccc3S(=O)(=O)N2C)s1.O=C(O)/C=C\C(=O)O | 0.3 |
| Cc1cnc(NC(=O)C2=C(O)c3ccccc3S(=O)(=O)N2C)s1.O=C(O)c1ccc2ccccc2c1O | 0 |

Kindly consider the entry below.
Ask | Can you look up the measured meloxicam plasma concentration of Cc1cnc(NC(=O)C2=C(O)c3ccccc3S(=O)(=O)N2C)s1.O=C(O)CCc1ccccc1 for me?
Reply | 0
